Recorded values, source ChEMBL document CHEMBL4007432.

system-under-test: Cytochrome P450 1B1 (Homo sapiens)
Sequence (Q16678 whole entry): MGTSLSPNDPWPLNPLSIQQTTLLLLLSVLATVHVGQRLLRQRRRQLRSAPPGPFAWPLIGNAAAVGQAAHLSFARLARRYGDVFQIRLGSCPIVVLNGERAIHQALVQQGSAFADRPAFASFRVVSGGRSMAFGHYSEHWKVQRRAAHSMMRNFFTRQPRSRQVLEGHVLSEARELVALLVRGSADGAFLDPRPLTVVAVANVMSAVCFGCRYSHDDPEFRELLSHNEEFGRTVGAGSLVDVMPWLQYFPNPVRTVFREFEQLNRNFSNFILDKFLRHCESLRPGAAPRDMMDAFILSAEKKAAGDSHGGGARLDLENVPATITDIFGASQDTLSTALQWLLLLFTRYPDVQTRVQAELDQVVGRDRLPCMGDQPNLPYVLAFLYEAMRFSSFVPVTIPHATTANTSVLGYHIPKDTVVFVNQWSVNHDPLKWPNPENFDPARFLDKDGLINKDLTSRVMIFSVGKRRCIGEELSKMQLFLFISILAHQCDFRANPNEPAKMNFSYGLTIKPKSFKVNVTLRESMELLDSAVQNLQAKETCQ
assay-summary: Inhibition of human liver CYP1B1 expressed in Saccharomyces cerevisiae YY7 cells using 7-ethoxyresorufin as substrate after 10 mins by fluorescence assay
Type: cell-based
pIC50: −log10 of the molar value.
measurement-type: pIC50

# line-notation, pIC50
rows = [
    ("COc1ccc2cc(C(=O)/C=C/c3cccnc3)ccc2c1", 7.19),
    ("O=C(/C=C/c1ccc2ccccc2c1)c1cccnc1", 7.19),
]

----------
assay-summary: Solubility of the compound in pH 1.2 simulated gastric fluid
Format: physicochemical
measurement-type: solubility (µg/mL)

# line-notation, result-unit, solubility
rows = [
    ("O=C(/C=C/c1ccc2ccccc2c1)c1cccnc1", "µg/mL", 68.6),
]

1 = O=c1cc(-c2ccccc2)oc2c1ccc1ccccc12
2 = COc1ccc2cc(C(=O)/C=C/c3cccnc3)ccc2c1
Larger number for solubility: 1 , or 2 ? Give the label under which the chosen entry appears.
2
